Would you kindly list pKd for each of these binders?
- study_target: T1, RHPN1, Q8TCX5
- T1 sequence (Q8TCX5 508-602, limits assumed, looked up): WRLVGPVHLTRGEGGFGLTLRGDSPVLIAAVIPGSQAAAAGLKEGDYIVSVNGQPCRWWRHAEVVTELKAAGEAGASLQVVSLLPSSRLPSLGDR
- test_protocol: holdup assay
- Design: key: below the threshold = too weak to quantify, mostly under pKd 3.1 to 4
- experimental_context: plain residues with an end cap or a label only (N-terminal biotin on a linker: ado-ado)
Answers are plain numbers.

Worked examples, 3 binders total:
binder: KRPEMTSSSV [MUC3A, MUC3B, Q02505;Q9H195]
pKd: 3.84
//
binder: AAVENKVTDL [PLXNB1, O43157]
pKd: 4.17
//
binder: DTKNYKQTSV [CRIPT, Q9P021]
pKd: 4.07

Fill in pKd for each of the 4 binders listed.
1. ELSATVTTDC [TRIP6, Q15654]
2. SVTSERETNI [SLC16A7, O60669]
3. QRPYRRGSEI [KCNJ18, B7U540]
4. KPGKGSETVV [FZD4, Q9ULV1]

Marked response:
1: 4.32; 2: 4.57; 3: 3.75; 4: 3.89
